assay.target: Tyrosine-protein kinase Lck (Homo sapiens)
Sequence (P06239 whole entry): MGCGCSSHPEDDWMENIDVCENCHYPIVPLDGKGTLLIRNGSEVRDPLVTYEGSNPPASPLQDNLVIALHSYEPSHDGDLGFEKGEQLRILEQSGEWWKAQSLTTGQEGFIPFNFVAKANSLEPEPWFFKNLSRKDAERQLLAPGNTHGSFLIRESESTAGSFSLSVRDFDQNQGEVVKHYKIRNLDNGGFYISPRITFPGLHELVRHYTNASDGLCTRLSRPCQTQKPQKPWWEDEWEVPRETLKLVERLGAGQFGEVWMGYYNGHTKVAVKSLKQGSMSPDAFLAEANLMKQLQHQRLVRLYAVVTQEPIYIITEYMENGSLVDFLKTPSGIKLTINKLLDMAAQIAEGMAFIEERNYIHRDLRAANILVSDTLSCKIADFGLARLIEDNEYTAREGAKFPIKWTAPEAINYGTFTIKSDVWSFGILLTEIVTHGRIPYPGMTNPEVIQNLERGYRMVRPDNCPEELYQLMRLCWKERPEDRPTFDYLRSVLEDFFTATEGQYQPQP
assay.explanation: Inhibition of partial length human LCK by KINOMEscan assay
observable: IC50 (nM)

{"compound": "C=CC(=O)N1CCC(Oc2n[nH]c3ncc(-c4cn(-c5c(F)ccc(NS(=O)(=O)c6cccc(-c7ccccc7)c6)c5F)nn4)cc23)C1 (stereo unspecified)", "observable": "IC50", "quantity.unit": "nM", "measured.number": 204}

====

Documented IC50 across a set of compounds
assay.target: Mitogen-activated protein kinase kinase kinase 20 (Homo sapiens, UniProt Q9NYL2)
Sequence (Q9NYL2 whole entry): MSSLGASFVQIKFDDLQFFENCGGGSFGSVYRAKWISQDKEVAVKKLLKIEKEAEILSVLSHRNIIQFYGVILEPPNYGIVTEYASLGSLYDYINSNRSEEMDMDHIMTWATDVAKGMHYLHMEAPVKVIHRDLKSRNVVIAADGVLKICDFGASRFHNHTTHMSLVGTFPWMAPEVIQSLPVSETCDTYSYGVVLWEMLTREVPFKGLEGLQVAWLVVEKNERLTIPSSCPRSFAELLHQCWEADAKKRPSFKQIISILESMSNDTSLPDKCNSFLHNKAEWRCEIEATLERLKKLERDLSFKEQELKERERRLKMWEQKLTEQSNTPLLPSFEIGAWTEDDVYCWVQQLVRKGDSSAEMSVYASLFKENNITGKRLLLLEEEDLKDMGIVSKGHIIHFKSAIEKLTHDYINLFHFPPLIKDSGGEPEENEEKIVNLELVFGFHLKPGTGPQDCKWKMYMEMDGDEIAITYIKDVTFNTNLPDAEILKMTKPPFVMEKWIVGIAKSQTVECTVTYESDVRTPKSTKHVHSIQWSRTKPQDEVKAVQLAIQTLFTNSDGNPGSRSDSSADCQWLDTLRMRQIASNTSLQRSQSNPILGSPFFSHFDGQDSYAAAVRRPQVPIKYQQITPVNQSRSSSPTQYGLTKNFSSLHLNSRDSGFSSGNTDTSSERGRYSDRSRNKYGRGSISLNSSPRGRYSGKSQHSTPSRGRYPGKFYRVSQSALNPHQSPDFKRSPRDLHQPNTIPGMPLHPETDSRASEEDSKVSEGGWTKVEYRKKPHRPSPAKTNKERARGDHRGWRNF
assay.explanation: Inhibition of recombinant ZAK (unknown origin) using ATP as substrate preincubated for 60 mins followed by substrate addition and measured after 40 mins by fluorescence based envision multilabel reader method

{"compound": "C=CC(=O)N1CCC(Oc2n[nH]c3ncc(-c4cn(-c5c(F)ccc(NS(=O)(=O)c6cccc(-c7ccccc7)c6)c5F)nn4)cc23)C1 (stereo not given)", "IC50 (nM)": 11.5}
{"compound": "C=CC(=O)N1CC[C@H](Oc2n[nH]c3ncc(-c4cn(-c5c(F)ccc(NS(=O)(=O)c6cccc(-c7ccccc7)c6)c5F)nn4)cc23)C1", "IC50 (nM)": 9.9}
{"compound": "C=CC(=O)NCCCOc1n[nH]c2ncc(-c3cn(-c4c(F)ccc(NS(=O)(=O)c5cccc(-c6ccccc6)c5)c4F)nn3)cc12", "IC50 (nM)": 9.1}
{"compound": "COc1n[nH]c2ncc(-c3cn(-c4c(F)ccc(NS(=O)(=O)c5cccc(-c6ccccc6)c5)c4F)nn3)cc12", "IC50 (nM)": 8.8}
{"compound": "C=CC(=O)N1CCC(Oc2n[nH]c3ncc(-c4cn(-c5c(F)ccc(NS(=O)(=O)c6ccccc6)c5F)nn4)cc23)C1 (stereo not given)", "IC50 (nM)": 10.1}

====

assay.target: Mitogen-activated protein kinase kinase kinase 20 (Homo sapiens, UniProt Q9NYL2)
assay.explanation: Inhibition of recombinant ZAK (unknown origin) using ATP as substrate preincubated for 60 mins followed by substrate addition and measured after 40 mins by fluorescence based envision multilabel reader method
pIC50: −log10 of the molar value.
observable: pIC50

{"compound": "C=CC(=O)N1CC[C@@H](Oc2n[nH]c3ncc(-c4cn(-c5c(F)ccc(NS(=O)(=O)c6cccc(-c7ccccc7)c6)c5F)nn4)cc23)C1", "measured.number": 7.91}
{"compound": "C=CC(=O)N1CCCC(NC(=O)CCCCCCOc2n[nH]c3ncc(-c4cn(-c5c(F)ccc(NS(=O)(=O)c6cccc(-c7ccccc7)c6)c5F)nn4)cc23)C1 (stereo not drawn)", "measured.number": 7.46}
{"compound": "C=CC(=O)NCCCCCCN1CCC(COc2n[nH]c3ncc(-c4cn(-c5c(F)ccc(NS(=O)(=O)c6cccc(-c7ccccc7)c6)c5F)nn4)cc23)CC1", "measured.number": 8.00}
